Can you tell me CTG-3D luminescence at 96 h for the items I'm about to list?
Test system: HCI-016 (organoid from a triple-negative breast cancer xenograft)
Experiment: CTG-3D luminescence at 96 h relative to day-0 seeding control (ratio to day 0); higher = more growth / less cytotoxicity; PDxO 3D drug screen, 96 h, CTG-3D normalised to day-0 seeding control.
Details: 625 fM; days in culture: 199
Lab note: jot down the number only; don't add units.

Q. Quickly give me recorded CTG-3D luminescence at 96 h for COc1cc2c(Oc3ccc4[nH]c(C)cc4c3F)ncnc2cc1OCCCN1CCCC1 [cediranib]
A. 1.73

Q. Quickly give me recorded CTG-3D luminescence at 96 h for C=CC(=O)N1CCC[C@@H](n2nc(-c3ccc(Oc4ccccc4)cc3)c3c(N)ncnc32)C1 [ibrutinib]
A. 1.72

Q. Quickly give me recorded CTG-3D luminescence at 96 h for CS(=O)(=O)c1ccc(C(=O)Nc2ccc(Cl)c(-c3ccccn3)c2)c(Cl)c1 [vismodegib]
A. 2.15

Q. Quickly give me recorded CTG-3D luminescence at 96 h for Nc1ccn([C@@H]2O[C@H](CO)[C@@H](O)C2(F)F)c(=O)n1 [gemcitabine]
A. 1.49

Q. Quickly give me recorded CTG-3D luminescence at 96 h for C/C=C1\NC(=O)[C@H]2CSSCC/C=C/[C@H](CC(=O)N[C@H](C(C)C)C(=O)N2)OC(=O)[C@H](C(C)C)NC1=O [romidepsin]
A. 2.15

Q. Quickly give me recorded CTG-3D luminescence at 96 h for O=C(O)C1(C(=O)O)CCC1.[NH2-].[NH2-].[Pt+2] [carboplatin]
A. 1.86

Q. Quickly give me recorded CTG-3D luminescence at 96 h for CCN1CCN(Cc2ccc(Nc3ncc(F)c(-c4cc(F)c5nc(C)n(C(C)C)c5c4)n3)nc2)CC1 [abemaciclib]
A. 1.85

Q. Quickly give me recorded CTG-3D luminescence at 96 h for NC(=O)Nc1cc(-c2cccc(F)c2)sc1C(=O)N[C@H]1CCCNC1 [AZD7762]
A. 1.57

Q. Quickly give me recorded CTG-3D luminescence at 96 h for Cc1cc(Nc2ncc(Cl)c(Nc3ccccc3S(=O)(=O)C(C)C)n2)c(OC(C)C)cc1C1CCNCC1 [ceritinib]
A. 1.96

Q. Quickly give me recorded CTG-3D luminescence at 96 h for CNC(=O)c1cccc(-c2ccc3c(N4CCOC[C@@H]4C)nc(N4CCOC[C@@H]4C)nc3n2)c1 [vistusertib]
A. 1.81

---

Can you tell me CTG-3D luminescence at 96 h for the items I'm about to list?
Tested on: HCI-019 (organoid from a triple-negative breast cancer xenograft)
Assay: CTG-3D luminescence at 96 h relative to day-0 seeding control (ratio to day 0); higher = more growth / less cytotoxicity; PDxO 3D drug screen, 96 h, CTG-3D normalised to day-0 seeding control.
Details: 0.00025 µM; days in culture: 110
Lab note: jot down the number only; don't add units.

Q. Quickly give me recorded CTG-3D luminescence at 96 h for Cc1cc(Nc2ncc(Cl)c(Nc3ccccc3S(=O)(=O)C(C)C)n2)c(OC(C)C)cc1C1CCNCC1 [ceritinib]
A. 1.72

Q. Quickly give me recorded CTG-3D luminescence at 96 h for COc1cc2c(Oc3ccc4[nH]c(C)cc4c3F)ncnc2cc1OCCCN1CCCC1 [cediranib]
A. 1.82

Q. Quickly give me recorded CTG-3D luminescence at 96 h for COc1cccc2c1C(=O)c1c(O)c3c(c(O)c1C2=O)C[C@@](O)(C(=O)CO)C[C@@H]3O[C@H]1C[C@H](N)[C@H](O)[C@H](C)O1 [doxorubicin]
A. 1.56

Q. Quickly give me recorded CTG-3D luminescence at 96 h for CN(Cc1cnc2nc(N)nc(N)c2n1)c1ccc(C(=O)N[C@@H](CCC(=O)O)C(=O)O)cc1 [methotrexate]
A. 1.69

Q. Quickly give me recorded CTG-3D luminescence at 96 h for CCN1CCN(Cc2ccc(Nc3ncc(F)c(-c4cc(F)c5nc(C)n(C(C)C)c5c4)n3)nc2)CC1 [abemaciclib]
A. 1.44

Q. Quickly give me recorded CTG-3D luminescence at 96 h for CC1(C)CCC(c2ccc(Cl)cc2)=C(CN2CCN(c3ccc(C(=O)NS(=O)(=O)c4ccc(N[C@H](CCN5CCOCC5)CSc5ccccc5)c(S(=O)(=O)C(F)(F)F)c4)cc3)CC2)C1 [navitoclax]
A. 1.8

Q. Quickly give me recorded CTG-3D luminescence at 96 h for Cc1nc(-c2cn3c(n2)-c2ccc(-c4cnn(C(C)(C)C(N)=O)c4)cc2OCC3)n(C(C)C)n1 [taselisib]
A. 1.32

Q. Quickly give me recorded CTG-3D luminescence at 96 h for O=C(c1ccc(F)c(F)c1Nc1ccc(I)cc1F)N1CC(O)([C@@H]2CCCCN2)C1 [cobimetinib]
A. 2.17

Q. Quickly give me recorded CTG-3D luminescence at 96 h for "CC(C)(C(=O)NCC(F)(F)C(F)(F)F)C(=O)N[C@@H]1C(=O)Nc2ccccc2-c2ccccc21"
A. 1.52

Q. Quickly give me recorded CTG-3D luminescence at 96 h for C/C=C1\NC(=O)[C@H]2CSSCC/C=C/[C@H](CC(=O)N[C@H](C(C)C)C(=O)N2)OC(=O)[C@H](C(C)C)NC1=O [romidepsin]
A. 1.12
